Hello, the source for this data is ChEMBL document CHEMBL1201862, in case you need it.

Reported GI50 values follow for various compounds
# Test system: M14
# test_description: NCI tumour cell line growth inhibition, 48 h
Calls of active or inactive are those of the source. Cut-off read from the data, not from the text of the source: active = GI50 up to about 1.1 µM and inactive = higher.
metric_name: GI50

>  <compound>
COc1ccc(C(=O)C(C(=O)CCC(=O)Nc2cccc(Cl)c2)c2ccc(OC)cc2)cc1 (stereo unspecified)

>  <metric_name>
GI50

>  <recorded_value>
> 100 µM (inactive)

$$$$
>  <compound>
CCOP(=O)(OCC)C(C)(CC)NC (stereo unspecified)

>  <metric_name>
GI50

>  <recorded_value>
> 100 µM (inactive)

$$$$
>  <compound>
C[C@H]1[C@@H](c2ccccc2)O[B-](c2ccccc2)(c2ccccc2)[N+]1(C)C

>  <metric_name>
GI50

>  <recorded_value>
27.7 µM (inactive)

$$$$
>  <compound>
O=C(O)C1OC1(c1cccc(Cl)c1)c1ccccc1Cl (stereo unspecified)

>  <metric_name>
GI50

>  <recorded_value>
18.8 µM (inactive)

$$$$
>  <compound>
CSC(=S)N(C)NC(=O)c1cccc(C(=O)NN(C)C(=S)SC)n1

>  <metric_name>
GI50

>  <recorded_value>
14.6 µM (inactive)

$$$$
>  <compound>
CCN(CC)CCN1C=CC(C)C(C(=O)O)C1C(N)=O (stereo unspecified)

>  <metric_name>
GI50

>  <recorded_value>
> 100 µM (inactive)

$$$$

====

# System: CAKI-1
# test_description: NCI tumour cell line growth inhibition, 48 h
Calls of active or inactive are those of the source. Cut-off read from the data, not from the text of the source: active = GI50 up to about 1.1 µM and inactive = higher.
# reported GI50; entries follow
metric_name: GI50

>  <compound>
Cc1c(-c2ccccn2)ccc2ccccc12

>  <recorded_value>
45 µM (inactive)

$$$$
>  <compound>
CC12CCC(=O)[C@@]1(C)CCCC2=O (stereo partly specified)

>  <recorded_value>
> 100 µM (inactive)

$$$$
>  <compound>
O=S1(=O)C[C@H](NCc2ccccc2)[C@H](NCc2ccccc2)C1

>  <recorded_value>
> 100 µM (inactive)

$$$$
>  <compound>
N=C1N(c2ccccc2)C(=O)C23CCCC2C13N1CCOCC1 (stereo unspecified)

>  <recorded_value>
> 100 µM (inactive)

$$$$
>  <compound>
CCCCCc1cc2cc3c(c(O)c2c(=O)[nH]1)C1(CCC3)C(=O)c2c(O)c3c(c(O)c2C1=O)C(=O)C(OC)=CC3=O (stereo unspecified)

>  <recorded_value>
0.502 µM (active)

$$$$
>  <compound>
CO/N=C(/C)c1cccc(Nc2nc3ccccc3c3[nH]c4ccccc4c23)c1

>  <recorded_value>
10.5 µM (inactive)

$$$$

====

Catalogue of GI50 values
# Test system: SW-620
# test_description: NCI tumour cell line growth inhibition, 48 h
Active and inactive are the calls of the source. Cut-off read from the data, not from the text of the source: active = GI50 up to about 1.1 µM and inactive = higher. Where a SMILES comes first, the peptide text is derived from it. [ ]: non-standard residue; d: D form. The star is where a group is joined. Phe(4-NO2) = N[CH](Cc1ccc([N+](=O)[O-])cc1)C(=O)O; Boc = CC(C)(C)OC(=O)*; OtBu = CC(C)(C)O*

>  <compound>
Cn1c2ccc(F)cc2c2ccc3c(c21)C(=O)C=CC3=O

>  <assayed_system>
SW-620

>  <GI50>
2.66 µM (inactive)

$$$$
>  <compound>
O=C1CCC(c2ccccc2)=NN1c1nc2ccccc2s1

>  <assayed_system>
SW-620

>  <GI50>
37.4 µM (inactive)

$$$$
>  <compound>
O=c1c2ccccc2c(=O)n2n1CC=CC2

>  <assayed_system>
SW-620

>  <GI50>
> 100 µM (inactive)

$$$$
>  <compound>
C/C(CC(=O)Nc1ccc(C)cc1)=N\NC(N)=S

>  <assayed_system>
SW-620

>  <GI50>
> 100 µM (inactive)

$$$$
>  <compound>
CC(C)(C)c1ccc(-c2nnc(SCc3ccc(Cl)cc3)n2-c2cccc(C(F)(F)F)c2)cc1

>  <assayed_system>
SW-620

>  <GI50>
15.9 µM (inactive)

$$$$
>  <compound>
CC(=O)NC(CCC(=O)OC(C)(C)C)C(=O)NC(CCC(=O)OC(C)(C)C)C(=O)NC(Cc1ccc([N+](=O)[O-])cc1)C(=O)NC(CCCCNC(=O)OC(C)(C)C)C(=O)NC(CCCCNC(=O)OC(C)(C)C)C(=O)NCC(=O)O (stereo not drawn) (Ac-E(OtBu)E(OtBu)[Phe(4-NO2)]K(Boc)K(Boc)G-OH; configuration not given here)

>  <assayed_system>
SW-620

>  <GI50>
> 100 µM (inactive)

$$$$
>  <compound>
O=C1NCN(c2ccccc2)C12CCN(CCCN1CCN(CCOC(c3ccccc3)c3ccccc3)CC1)CC2

>  <assayed_system>
SW-620

>  <GI50>
2.62 µM (inactive)

$$$$
>  <compound>
Cc1c/c(=N/NC(=O)c2ccncc2)n2nc(N)sc2n1

>  <assayed_system>
SW-620

>  <GI50>
> 100 µM (inactive)

$$$$

====

Each entry below carries its recorded GI50.
# System: HCT-15
metric_name: GI50

>  <compound>
C=C=C(C)[Si](C)(C)C

>  <metric_name>
GI50

>  <recorded_value>
> 100 µM

$$$$
>  <compound>
O=C1CCNC(=O)NC1

>  <metric_name>
GI50

>  <recorded_value>
> 100 µM

$$$$
>  <compound>
CCOC(=O)c1ccc(Nc2nc3ccc(C(F)(F)F)cc3nc2C(=O)OCC)cc1

>  <metric_name>
GI50

>  <recorded_value>
> 100 µM

$$$$
>  <compound>
Fc1cc(C2=Nn3c(COc4ccccc4Cl)nnc3S/C2=C\c2ccc(Cl)cc2)c(Cl)cc1Cl

>  <metric_name>
GI50

>  <recorded_value>
3.72 µM

$$$$
>  <compound>
Nc1nc(Nc2ccccc2)sc1C(=O)c1ccco1

>  <metric_name>
GI50

>  <recorded_value>
12.2 µM

$$$$
>  <compound>
CC(=O)OCC(OC(C)=O)C(OC(C)=O)C(OC(C)=O)C(/C=N\Nc1nc2ccccc2c(=O)[nH]1)OC(C)=O (stereo unspecified)

>  <metric_name>
GI50

>  <recorded_value>
> 100 µM

$$$$
>  <compound>
CSc1ccccc1P(c1ccccc1SC)c1ccccc1SC

>  <metric_name>
GI50

>  <recorded_value>
> 100 µM

$$$$
>  <compound>
CC(C)[Si](OCC1CC(C#N)OC(C)(C)O1)(C(C)C)C(C)C (stereo unspecified)

>  <metric_name>
GI50

>  <recorded_value>
27.8 µM

$$$$
>  <compound>
O=C(NCc1cccs1)OC1CC2CCC1C2 (stereo unspecified)

>  <metric_name>
GI50

>  <recorded_value>
> 100 µM

$$$$
>  <compound>
CC(=O)c1ccccc1NCC(=O)Nn1cnc2ccc(S(=O)(=O)Nc3ccccc3C(C)=O)cc2c1=O

>  <metric_name>
GI50

>  <recorded_value>
> 100 µM

$$$$
>  <compound>
CC1(C)C(=O)CCC(=O)C(C)(C)C2=CC=C(O2)C(C)(C)C(=O)CCC(=O)C(C)(C)C2=CC=C1O2

>  <metric_name>
GI50

>  <recorded_value>
> 100 µM

$$$$

====

# key: entry, value: GI50
# Test system: HCC 2998
# test_description: NCI tumour cell line growth inhibition, 48 h
Activity calls are given as the source filed them. No stated cut-off is given here; in the data, active = GI50 up to about 1.1 µM and inactive = higher.
metric_name: GI50

>  <molecule>
O=S1(=O)C[C@H](NCc2ccccc2)[C@H](NCc2ccccc2)C1

>  <recorded_value>
> 100 µM (inactive)

$$$$
>  <molecule>
Nc1nnc(O)c2c1c(I)cn2C1OC(CO)C(O)C1O (stereo unspecified)

>  <recorded_value>
0.208 µM (active)

$$$$
>  <molecule>
CC(=O)Nc1ccc(C2=N/C(=C\c3ccc(Cl)cc3)C(=O)O2)cc1

>  <recorded_value>
20 µM (inactive)

$$$$
>  <molecule>
O=C(Oc1cccnc1)c1cc2cc(CCl)ccc2oc1=O

>  <recorded_value>
57.7 µM (inactive)

$$$$
>  <molecule>
O=C(O)C1=C(O)C(C(=O)O)C23CCCCCCCCCCC12C(C(=O)O)C(O)=C3C(=O)O (stereo unspecified)

>  <recorded_value>
> 100 µM (inactive)

$$$$
>  <molecule>
CC1(C)CN=C(Nc2ccc(F)c(Cl)c2)S1

>  <recorded_value>
> 100 µM (inactive)

$$$$
>  <molecule>
COc1c(OC)c(OC)c2c(c1OC)c(=O)c1ccccc1n2C

>  <recorded_value>
> 100 µM (inactive)

$$$$
>  <molecule>
CS(=O)(=O)OC1CCC2(C#N)CCC1C2=O (stereo unspecified)

>  <recorded_value>
46.1 µM (inactive)

$$$$
>  <molecule>
COC1C=CC(C(=O)[N+]2=Cc3[nH]c4ccccc4c3CC2)O1 (stereo unspecified)

>  <recorded_value>
55.6 µM (inactive)

$$$$
>  <molecule>
O=C(O)C(Cc1c[nH]c2ccccc12)C(=O)NO (stereo unspecified)

>  <recorded_value>
> 100 µM (inactive)

$$$$
>  <molecule>
CCCCC(/C=N/NC(=N)N)CC.Cc1cc(O)c(C(C)C)cc1S(=O)(=O)O

>  <recorded_value>
17.5 µM (inactive)

$$$$
